experiment: P. aeruginosa biofilm formation inhibitors, primary screen, strain PAO1, LB-PBS medium, absorbance 600 nm (AID 1176); note: test concentration not given here; conditions: P. aeruginosa PAO1 growth/biofilm, A600, 12 h; higher = more signal
Assign Satisfied whenever z-score does not fall below 0.4; assign Not satisfied whenever it does.

Molecule: C[C@]1(C(=O)O)c2ccccc2C(=O)N(Cc2ccc(OC(F)(F)F)cc2)[C@H]1c1ccc(CO)cc1
Label Value: Not satisfied
//
Molecule: Cc1ccc([C@H]2C(C(=O)O)=C[C@@H](C(C)(C)C)N2S(=O)(=O)c2ccc(C)cc2)cc1
Label Value: Not satisfied
//
Molecule: C=C(CCCC)C(=O)CC[C@@H](OC(=O)c1cccnc1)c1ccc(OCCO)cc1
Label Value: Satisfied
//
Molecule: CN(C)CCCCNC(=O)[C@H]1C[C@H]2C(=O)N[C@@H](CCCC[N+](C)(C)C)C(=O)N2[C@H]1c1ccc(O)cc1
Label Value: Not satisfied
//
Molecule: C=C(COC)C(=O)CC[C@H](OC(C)=O)c1ccc(OCCO)cc1
Label Value: Not satisfied
//
Molecule: Cc1ccccc1C(O)C1C=CC2C(=O)N(c3ccccc3)C(=O)C2N1Nc1ccc([N+](=O)[O-])cc1 (centres undefined)
Label Value: Satisfied
//
Molecule: O=C1OCCC=C[C@H]2OC34C=CCN(c5ccc(Cl)cc5)C(=O)[C@H]3N(CCCCCCO)C(=O)[C@@H]4C12 (some centres undefined)
Label Value: Not satisfied
//
Molecule: COCCOC(=O)N1C(=O)[C@@]2(c3cc(C#Cc4ccc(OC)cc4)ccc31)[C@H](C(=O)NC[C@H](O)c1ccccc1)[C@H]1C(=O)O[C@H](c3ccccc3)[C@H](c3ccccc3)N1[C@@H]2c1ccc(OCCO)cc1
Label Value: Satisfied
//
Molecule: NC(=O)[C@@H]1[C@H]2C(=O)O[C@H](c3ccccc3)[C@H](c3ccccc3)N2[C@H](c2ccc(OCCO)cc2)[C@@]12C(=O)Nc1ccc(C#CCCO)cc12
Label Value: Satisfied
//
Molecule: CC(C)[C@H]1NC(=O)[C@@]23C(=O)N[C@@H](Cc4ccccc4)C2[C@H](C)[C@@]2(C)O[C@H]2C3/C=C/CCC/C=C/CNC(=O)[C@H](Cc2ccccc2)NC1=O (some centres undefined)
Label Value: Not satisfied
//
Molecule: COCCOC(=O)N1C(=O)[C@@]2(c3cc(C#CC4(O)CCCCCC4)ccc31)[C@H](C(=O)N1CCN(c3ncccn3)CC1)[C@H]1C(=O)O[C@H](c3ccccc3)[C@H](c3ccccc3)N1[C@@H]2c1ccccc1OCCO
Label Value: Satisfied
//
Molecule: C=CCC(OC(C)=O)[C@@H]1[C@@H](N(Cc2cccc3ccccc23)C(=O)c2cccc3ccccc23)c2cc(OCCCO)ccc2N1C(=O)c1ccc2ccccc2c1 (some centres undefined)
Label Value: Not satisfied
//
Molecule: C=CCOC(=O)[C@H]1[C@@H]2C(=O)O[C@@H](c3ccccc3)[C@@H](c3ccccc3)N2[C@@H](c2ccc(OCCOC(=O)[C@H]3C[C@H]4C(=O)N[C@@H](CCCCNC(C)=O)C(=O)N4[C@H]3c3cccc(OCCO)c3)cc2)[C@]12C(=O)Nc1ccc(I)cc12
Label Value: Satisfied
//
Molecule: CN(C)C(=O)[C@]1(CCS(=O)(=O)c2ccccc2)N=C(c2ccc(OCCCO)cc2)O[C@@H]1c1ccccc1
Label Value: Not satisfied
//
Molecule: COc1ccc(C(O)C2C=CC3C(=O)N(c4ccccc4)C(=O)C3N2Nc2ccccc2)cc1 (centres undefined)
Label Value: Satisfied
//
Molecule: O=C1O[C@H](c2ccccc2)[C@H](c2ccccc2)N2[C@H]1[C@@H](C(=O)N1CCCCCCC1)[C@]1(C(=O)Nc3ccc(C#CC4(O)CCCCCC4)cc31)[C@H]2c1ccc(O)cc1
Label Value: Satisfied
//
Molecule: CC(C)OC(=O)CC(=O)CC(O)c1ccc([N+](=O)[O-])cc1 (centres undefined)
Label Value: Not satisfied
//
Molecule: COc1cc2c(cc1OC)CN(C(=O)[C@@H]1[C@H]3C(=O)O[C@H](c4ccccc4)[C@H](c4ccccc4)N3[C@H](c3ccc(O)cc3)[C@@]13C(=O)Nc1ccc(C#CCCO)cc13)CC2
Label Value: Satisfied
//
Molecule: CC(C)C(=C=CC[C@H](O)c1cccc(OCCO)c1)CCO
Label Value: Not satisfied
//
Molecule: CN1C(=O)C2C=CC(C(O)c3ccc(F)cc3)N(NC(=O)OC(C)(C)C)C2C1=O (centres undefined)
Label Value: Satisfied
//
Molecule: C=CCNC(=O)[C@H]1[C@@H]2C(=O)O[C@@H](c3ccccc3)[C@@H](c3ccccc3)N2[C@@H](c2ccc(OCCO)cc2)[C@]12C(=O)Nc1ccc(C#CCNC(N)=O)cc12
Label Value: Satisfied
//
Molecule: O=C(N1CCOCC1)[C@@]1(CCS(=O)(=O)c2ccccc2)N=C(c2ccc(OCCCO)cc2)O[C@H]1c1ccccc1
Label Value: Satisfied
//
Molecule: CCCNC(=O)[C@@]1(C)c2ccccc2C(=O)N(Cc2ccccc2)[C@H]1c1ccc(CO)cc1
Label Value: Not satisfied
//
Molecule: CN1C=C(C(=O)OCCS(C)(=O)=O)C(C(=O)OCCS(C)(=O)=O)=CC(c2ccc(CO)cc2)=CC1c1cccs1 (centres undefined)
Label Value: Not satisfied
//
Molecule: C=C(COC)/C(=C/C[C@H](OC(C)=O)c1cccc(OCCO)c1)c1cnc2ccccc2c1
Label Value: Not satisfied
//
Molecule: O=C1C[C@@](C(=O)NCc2ccccc2)(c2ccc([N+](=O)[O-])cc2)[C@@H](c2ccc(CO)cc2I)N1CC12CC3CC(CC(C3)C1)C2
Label Value: Satisfied
//
Molecule: Cc1nc2cc(Br)ccc2c(=O)n1Cc1cccc(O)c1
Label Value: Satisfied
//
Molecule: CCCCC(=O)N(CCN1CCOCC1)[C@@H]1CC(C(=O)NCCO)=C[C@H](Oc2c(I)cc(CO)cc2OC)[C@H]1O
Label Value: Not satisfied
//
Molecule: O=c1cccc(-c2ccco2)o1
Label Value: Not satisfied
